- Tested on: HEK-293T
- method_summary: Multiplex assay against HEK293T
- Type: toxicity, cell-based
- applied_conditions: human, 24 h, 1 µM, compound concentration 1 uM, replicate 1
quantity_kind: Population Normal (%)
Numbers only; they are read as %.

                                   compound          quantity_kind  unit_string  result_value
0  Cc1ccc(S(=O)(=O)NC2c3ccccc3Oc3ccccc32)cc1  Population Normal (%)            %            86

Ask: Tell me measured Population Normal (%) for N#Cc1cccc(C(=O)Nc2cc(-c3ccccc3)nn2-c2ccccc2)c1 please.
Reply: 87

Ask: Check the records and state Population Normal (%) for CC[C@H](Nc1ncnc2[nH]cnc12)c1nc2cccc(F)c2c(=O)n1-c1ccccc1
Reply: 89

Ask: State its Population Normal (%) for this compound: CCCc1cc(C)[nH]c(=O)c1CNC(=O)c1cc(-c2ccc(N3CCN(C(C)C)CC3)nc2)cc2c1cnn2C(C)C
Reply: 82

====

Here the recorded Population Normal (%) is given for each entry.
- System: U2OS
- method_summary: Multiplex assay against U2OS
- Assay type: toxicity, cell-based
- applied_conditions: human, 48 h, 1 µM, compound concentration 1 uM, replicate 1
Quick note: give the figure in %, leave out the unit.

In [3]: df
Out[3]:
                                   molecule          quantity_kind  result_value
0  CCCCN(CC)c1nc(C)nc2c1c(C)cn2-c1c(C)cc(C)cc1C.Cl  Population Normal (%)            96
1  Oc1cccc(-c2nc(N3CCOCC3)c3oc4ncccc4c3n2)c1 [PI-103]  Population Normal (%)            92

Ask: Name the recorded Population Normal (%) of the item CC(/C=C1\SC(=S)N(CCCC(=O)Nc2ccc(C(=O)O)c(O)c2)C1=O)=C\c1ccccc1 in your answer.
Reply: 98

Ask: Answer with the recorded Population Normal (%) for the molecule listed here: CC(C)[C@H](CO)Nc1nc(Nc2cccc(Cl)c2)c2ncn(C(C)C)c2n1 [PURVALANOLA]
Reply: 95

Ask: Provide one value: measured Population Normal (%) of N#Cc1cccc(C(=O)Nc2cc(-c3ccccc3)nn2-c2ccccc2)c1
Reply: 94

Ask: Please report the measured Population Normal (%) for N#CCNC(=O)c1ccc(-c2ccnc(Nc3ccc(N4CCOCC4)cc3)n2)cc1 [MOMELOTINIB]
Reply: 96

Ask: Please report the measured Population Normal (%) for C[C@@H](Oc1cc(-n2cnc3ccc(CN4CCN(C)CC4)cc32)sc1C(N)=O)c1ccccc1C(F)(F)F [GSK-461364]
Reply: 89

Ask: Tell me measured Population Normal (%) for CN(c1cc(C(F)(F)F)nc(OCCC(=O)O)n1)c1cccc2c1CCC2 please.
Reply: 94

Ask: Using the record for CC(C)c1cc(Nc2nc(N3CCC[C@H](N)C3)ncc2C(N)=O)cc(C(C)C)n1 , state its measured Population Normal (%).
Reply: 92

====

# Lookup of reported Population Tubulin-Different-Phenotype (%) keyed by entry
- System: Fibroblast
- method_summary: Multiplex assay against human fibroblast
- Format: toxicity, cell-based
- applied_conditions: 24 h, 1 µM, compound concentration 1 uM, replicate 2
Note: unit % is implicit; provide only the numeric part.

                                   compound  result_value
0  Cc1ccc(S(=O)(=O)NC2c3ccccc3Oc3ccccc32)cc1            13
1  Cl.NC[C@@H]1O[C@H](C23CC4CC(CC(C4)C2)C3)Cc2c1ccc(O)c2O            12
2  Cl.Cn1c2c(c3ccc(Cl)c(Cl)c31)C(C#N)C1(CCNCC1)NC2=O (stereo not drawn)            19
3  CC[C@@H]1C(=O)N(C)c2cnc(Nc3ccc(C(=O)NC4CCN(C)CC4)cc3OC)nc2N1C1CCCC1 [BI-2536]            11
4  CCOc1ccn(-c2ccc(F)cc2)c(=O)c1C(=O)Nc1ccc(Oc2ccnc(N)c2Cl)c(F)c1 [BMS-777607]            31

Ask: Give the measured Population Tubulin-Different-Phenotype (%) for CC(C)C[C@H](NC(=O)[C@H](Cc1ccccc1)NC(=O)CNC(=O)CNC(=O)[C@@H](N)Cc1ccc(O)cc1)C(=O)O [ENKEPHALIN]
Reply: 31

Ask: Indicate its recorded Population Tubulin-Different-Phenotype (%); the compound in question is NC(=O)c1ccc2nc(-c3ccc(C4(N)CCC4)cc3)c(-c3ccccc3)n2n1 [BAY-1125976]
Reply: 47

Ask: Output measured Population Tubulin-Different-Phenotype (%) for this item: CCCCCNC(=N)N/N=C/c1c[nH]c2ccc(OC)cc12.O=C(O)/C=C\C(=O)O [TEGASEROD MALEATE]
Reply: 7

====

- Tested on: Fibroblast
- method_summary: Multiplex assay against human fibroblast
- Format: toxicity, cell-based
- applied_conditions: 12 h, 1 µM, compound concentration 1 uM, replicate 2
Each entry falls into one class according to its Total Cell Count; the ranges are Low = under 70, Mid = from 70 up to 90, High = 90 and over

>>> print(df.to_string())
                                   compound  discrete_label
0  CC[C@@H]1C(=O)N(C)c2cnc(Nc3ccc(C(=O)NC4CCN(C)CC4)cc3OC)nc2N1C1CCCC1            High
1  NC(=O)c1ccc2nc(-c3ccc(C4(N)CCC4)cc3)c(-c3ccccc3)n2n1            High
2  Cc1ccc(S(=O)(=O)NC2c3ccccc3Oc3ccccc32)cc1             Low
3  CCCCCNC(=N)N/N=C/c1c[nH]c2ccc(OC)cc12.O=C(O)/C=C\C(=O)O [TEGASEROD MALEATE]             Mid

Ask: Exercise: read the entry Oc1cccc(-c2nc(N3CCOCC3)c3oc4ncccc4c3n2)c1 and state which class it falls under.
Reply: Mid

Ask: Hi there! Could you help me figure out the category for CCCCN(CC)c1nc(C)nc2c1c(C)cn2-c1c(C)cc(C)cc1C.Cl please?
Reply: High

====

- Tested on: U2OS
- method_summary: Multiplex assay against U2OS
- Assay type: toxicity, cell-based
- applied_conditions: human, 24 h, 1 µM, compound concentration 1 uM, replicate 1
quantity_kind: Population Pyknosed Nuclei (%)
A number alone suffices; assume %.

In [3]: df
Out[3]:
                                   compound  measured_target  unit_string  result_value
0  Cc1c(Nc2ccc(S(=O)(=O)N3CCN(C)CC3)cc2F)nc2ccc(-c3cnn(C4CC4)c3)cn2c1=O             U2OS            %             2
1  N#CCNC(=O)c1ccc(-c2ccnc(Nc3ccc(N4CCOCC4)cc3)n2)cc1             U2OS            %             7
2  Cc1ccc(S(=O)(=O)NC2c3ccccc3Oc3ccccc32)cc1             U2OS            %            16
3  CC[C@H](Nc1ncnc2[nH]cnc12)c1nc2cccc(F)c2c(=O)n1-c1ccccc1             U2OS            %            10
4  Cl.Cn1c2c(c3ccc(Cl)c(Cl)c31)C(C#N)C1(CCNCC1)NC2=O (centres undefined)             U2OS            %             6
5  Cc1c(Nc2ccc(S(=O)(=O)N3CCN(C)CC3)cc2F)nc2ccc(Nc3cnn(C4CC4)c3)cn2c1=O             U2OS            %             9
6  CCCc1cc(C)[nH]c(=O)c1CNC(=O)c1cc(-c2ccc(N3CCN(C(C)C)CC3)nc2)cc2c1cnn2C(C)C             U2OS            %            21
7  CN1C(=O)[C@@H](NC(=O)c2cc3ccccc3[nH]2)N=C(c2ccccc2)c2ccccc21 [DEVAZEPIDE]             U2OS            %            13

Ask: Return the recorded Population Pyknosed Nuclei (%) value; entry: Cl.NC[C@@H]1O[C@H](C23CC4CC(CC(C4)C2)C3)Cc2c1ccc(O)c2O
Reply: 9

====

- System: Fibroblast
- method_summary: Multiplex assay against human fibroblast
- Type: toxicity, cell-based
- applied_conditions: 12 h, 1 µM, compound concentration 1 uM, replicate 1
Entries and their Population Normal (%) values follow.
Report only the number, with the unit % understood.

// below: answered molecules
>>> print(df.to_string())
                                   molecule  result_value
0  CC(C)c1cc(Nc2nc(N3CCC[C@H](N)C3)ncc2C(N)=O)cc(C(C)C)n1            86
1  N#CCNC(=O)c1ccc(-c2ccnc(Nc3ccc(N4CCOCC4)cc3)n2)cc1            88
2  Cc1ccc(NC(=O)Nc2cc(C(F)(F)F)ccc2F)cc1Nc1ccc2c(c1)NC(=O)/C2=C\c1ccc[nH]1            89
3  N#Cc1cccc(C(=O)Nc2cc(-c3ccccc3)nn2-c2ccccc2)c1            88
4  NC(=O)c1ccc2nc(-c3ccc(C4(N)CCC4)cc3)c(-c3ccccc3)n2n1            61

Ask: Please report the measured Population Normal (%) for CCCCN(CC)c1nc(C)nc2c1c(C)cn2-c1c(C)cc(C)cc1C.Cl
Reply: 88

Ask: For the molecule CN(c1cc(C(F)(F)F)nc(OCCC(=O)O)n1)c1cccc2c1CCC2 , give its reported Population Normal (%).
Reply: 88
